IC50, Smurf-1 (Homo sapiens): measured values
resultType: IC50 (nM)

In the examples that follow, each entry is paired with its recorded IC50.
compound	IC50, nM
COc1ccc(-c2onc(C(=O)Nc3c(C)n(C)n(C4CCCCC4)c3=O)c2Br)c(Cl)c1 [Example 034]	3.7
Cc1c(C(=O)Nc2c(C)n(C)n(C3CCCCC3)c2=O)noc1-c1ccc(OCC2CC2)cc1Cl [Example 072]	98
Cc1c(NC(=O)c2noc(-c3ccc(Cl)cc3Cl)c2Br)c(=O)n(-c2ccccc2F)n1C [Example 037]	36
Cc1c(NC(=O)c2noc(-c3ccc(OC(F)F)cc3Cl)c2Cl)c(=O)n(-c2ccccc2F)n1C [Example 003]	54.3
COc1ccc(-c2onc(C(=O)Nc3c(C)n(C)n(-c4ccccc4F)c3=O)c2Cl)c(F)c1Cl [Example 021]	810

(1) COc1ccc(-c2onc(C(=O)Nc3c(C)n(C)n(-c4ccccc4F)c3=O)c2Cl)c(F)c1 [Example 022]
(2) COc1ccc(-c2onc(C(=O)Nc3c(C)n(C)n(-c4ccccc4F)c3=O)c2F)c(Cl)c1 [Example 033]
(3) Cc1c(NC(=O)c2noc(-c3ccc(Cl)cc3Cl)c2C2CC2)c(=O)n(C2CCCCC2)n1C [Example 039]
(4) Cc1c(C(=O)Nc2c(C)n(C)n(C3CCCCC3)c2=O)noc1-c1ccc(OC(F)(F)F)cc1Cl [Example 010]
(5) Cc1c(C(=O)Nc2c(C)n(C)n(C3CCCCC3)c2=O)noc1-c1ccc(Cl)cc1C1CC1 [Example 069]
Inquiry: List these items ordered by IC50, big to small. Give me the labels in the order the question wants.
Reply text: 1, 2, 4, 3, 5

(A) Cc1c(C(=O)Nc2c(C)n(C)n(C3CCCCC3)c2=O)noc1-c1ccc(C2CC2)cc1Cl [Example 019]
(B) Cc1c(C(=O)Nc2c(C)n(C)n(C3CCCCC3)c2=O)noc1-c1cccc(F)c1F [Example 055]
(C) COc1ccc(-c2onc(C(=O)Nc3c(C)n(C)n(C4CCCCC4)c3=O)c2C2CC2)c(F)c1 [Example 086]
(D) Cc1c(NC(=O)c2noc(-c3ccc(Cl)cc3Cl)c2Cl)c(=O)n(C2CCCCC2)n1C [Example 023]
Inquiry: List these items ordered by IC50, big to small. Give me the labels in the order the question wants.
Reply text: C, B, A, D
(C: 260 nM, B: 109 nM, A: 3.5 nM, D: 2.4 nM)
